Hi there, I'd appreciate the recorded Lym for every entry that follows.
organism: Rattus norvegicus; assay: Open TG-GATES - Regimen: Single; type: toxicity, organism-based, Sprague-Dawley; parameters: regimen Single, gender Male, age 6 weeks; conditions: in vivo, po, 0 mg/kg, 9 h, tissue Blood, route gavage, dose level Control
Give bare numbers, in %.

Observe how each entry below is paired with its result.
Compound	Unit spec	Lym
COc1ccc(Cc2nccc3cc(OC)c(OC)cc23)cc1OC	%	81.2
C[C@H](CS)C(=O)N1CCC[C@H]1C(=O)O	%	79.8
Cn1c(=O)c2[nH]cnc2n(C)c1=O.O	%	77.6

I have 2 compounds here; please give me Lym for each one.
1. O=C(O)c1cc(/N=N/c2ccc(S(=O)(=O)Nc3ccccn3)cc2)ccc1O
2. Clc1ccccc1CN1CCc2sccc2C1

Response:
1. 72.6
2. 78.2

List reported Lym for each of these compounds:
1. CC(=O)Oc1ccccc1C(=O)O
2. CCc1cc(C(N)=S)ccn1 [ETHIONAMIDE]
3. O=C(O)c1cn(C2CC2)c2cc(N3CCNCC3)c(F)cc2c1=O
4. NC(=O)N1c2ccccc2C=Cc2ccccc21 [CARBAMAZEPINE]
5. NC(=O)N/N=C/c1ccc([N+](=O)[O-])o1

Response:
80.2
71
82.6
78.8
75

Provide reported Lym for each item, in the same order as listed.
1. CN(C)CCC=C1c2ccccc2CCc2ccccc21
2. CSc1ccc2c(c1)N(CCC1CCCCN1C)c1ccccc1S2 (configuration not stated)

Response:
77.6
73.2

---

organism: Rattus norvegicus; experiment: Open TG-GATES - Regimen: Single; type: toxicity, organism-based, Sprague-Dawley; parameters: regimen Single, gender Male, age 6 weeks; details: in vivo, po, 100 mg/kg, 24 h, tissue Blood, route gavage, dose level Low
Readout kind: MCH (pg)
Numbers only, in pg.

Molecule	Meas value
O=C(O)c1cc(/N=N/c2ccc(S(=O)(=O)Nc3ccccn3)cc2)ccc1O	21.2
CCc1cc(C(N)=S)ccn1 [ETHIONAMIDE]	21.6
Clc1ccccc1CN1CCc2sccc2C1	21.7
O=C(O)c1cn(C2CC2)c2cc(N3CCNCC3)c(F)cc2c1=O	22.1

Now, please, on to the next molecule.
Request: Quick one: MCH of C[C@H](CS)C(=O)N1CCC[C@H]1C(=O)O ?
Response: 21.1

---

species: Rattus norvegicus; assay: Open TG-GATES - Regimen: Single; format: toxicity, organism-based, Sprague-Dawley; parameters: regimen Single, gender Male, age 6 weeks; settings: in vivo, po, 300 mg/kg, 9 h, tissue Blood, route gavage, dose level Middle
Readout kind: Mono

Past entries and their recorded results:
Compound	Mono
O=C(O)c1cn(C2CC2)c2cc(N3CCNCC3)c(F)cc2c1=O	5.2%
C[C@H](CS)C(=O)N1CCC[C@H]1C(=O)O	4.8%
Clc1ccccc1CN1CCc2sccc2C1	2%
O=C(O)c1cc(/N=N/c2ccc(S(=O)(=O)Nc3ccccn3)cc2)ccc1O	2.6%

Kindly consider the entry below.
Request: Given CCc1cc(C(N)=S)ccn1 [ETHIONAMIDE] , state its recorded Mono.
Response: 8.4%

---

species on record: Rattus norvegicus; assay: Open TG-GATES - Regimen: Single; format: toxicity, organism-based, Sprague-Dawley; parameters: regimen Single, gender Male, age 6 weeks; conditions: in vivo, po, 0 mg/kg, 3 h, tissue Plasma, route gavage, dose level Control
Strictly below 4 meq/L in K: y. Otherwise: n.

Worked set:
Compound	Discrete label
O=C(O)c1cn(C2CC2)c2cc(N3CCNCC3)c(F)cc2c1=O [CIPROFLOXACIN]	n
CSc1ccc2c(c1)N(CCC1CCCCN1C)c1ccccc1S2 (configuration not stated) [THIORIDAZINE]	n
Cn1c(=O)c2[nH]cnc2n(C)c1=O.O [THEOPHYLLINE]	n
CCc1cc(C(N)=S)ccn1 [ETHIONAMIDE]	n
C[C@H](CS)C(=O)N1CCC[C@H]1C(=O)O [CAPTOPRIL]	n

Okay, next one:
Request: # check: K < 4 meq/L for NC(=O)N1c2ccccc2C=Cc2ccccc21 [CARBAMAZEPINE]
Response: y

---

Task for the reader: assign each of the following compounds its reported Lym.
species: Rattus norvegicus; assay: Open TG-GATES - Regimen: Daily Repeat; type: toxicity, organism-based, Sprague-Dawley; parameters: regimen Daily Repeat, gender Male, age 6 weeks; details: in vivo, po, 0 mg/kg, 72 h, tissue Blood, route gavage, dose level Control, time 3 day
One number for each entry, in %.

Before answering, review these 6 worked examples.
Compound	Unit spec	Lym
CSc1ccc2c(c1)N(CCC1CCCCN1C)c1ccccc1S2 (stereo not drawn)	%	78
C[C@H](CS)C(=O)N1CCC[C@H]1C(=O)O	%	82.8
CCCC(CCC)C(=O)O	%	82.2
COc1ccc(Cc2nccc3cc(OC)c(OC)cc23)cc1OC	%	81.2
Clc1ccccc1CN1CCc2sccc2C1	%	77.6
O=C(O)c1cc(/N=N/c2ccc(S(=O)(=O)Nc3ccccn3)cc2)ccc1O	%	78.2

Here are 2 compounds. What values of Lym were reported for them?
1. NC(=O)N1c2ccccc2C=Cc2ccccc21 [CARBAMAZEPINE]
2. CCc1cc(C(N)=S)ccn1 [ETHIONAMIDE]

Response:
1: 79; 2: 73

Quick one: give me Lym for each item below, same order please.
1. CN(C)CCC=C1c2ccccc2CCc2ccccc21
2. Cn1c(=O)c2[nH]cnc2n(C)c1=O.O
3. COc1ccc2c(c1)c(CC(=O)O)c(C)n2C(=O)c1ccc(Cl)cc1
4. CC(=O)Oc1ccccc1C(=O)O
5. NC(=O)N/N=C/c1ccc([N+](=O)[O-])o1

Response:
[71.4, 79.4, 81.4, 82, 81]

---

organism: Rattus norvegicus; test: Open TG-GATES - Regimen: Single; format: toxicity, organism-based, Sprague-Dawley; set-up: regimen Single, gender Male, age 6 weeks; settings: in vivo, po, 300 mg/kg, 9 h, tissue Blood, route gavage, dose level Middle
Could you please report measured Ht for the items listed next?
Numbers only, in %.

Answered cases to consult:
Compound	Ht, %
CCc1cc(C(N)=S)ccn1 [ETHIONAMIDE]	42.3
O=C(O)c1cn(C2CC2)c2cc(N3CCNCC3)c(F)cc2c1=O	39.7
Clc1ccccc1CN1CCc2sccc2C1	37.6
O=C(O)c1cc(/N=N/c2ccc(S(=O)(=O)Nc3ccccn3)cc2)ccc1O	38.1

Would you kindly look at the next entry?
Request: What does the data say about its Ht? Entry: C[C@H](CS)C(=O)N1CCC[C@H]1C(=O)O
Response: 39.5

---

organism: Rattus norvegicus; test: Open TG-GATES - Regimen: Single; assay type: toxicity, organism-based, Sprague-Dawley; parameters: regimen Single, gender Male, age 6 weeks; conditions: in vivo, po, 300 mg/kg, 9 h, tissue Blood, route gavage, dose level Middle
Would you kindly list PT for each of these compounds?
One number for each entry, in s.

Guide cases for PT, answers given:
Compound	Unit spec	PT
Clc1ccccc1CN1CCc2sccc2C1 [TICLOPIDINE]	s	12.7
CCc1cc(C(N)=S)ccn1 [ETHIONAMIDE]	s	14.4
O=C(O)c1cn(C2CC2)c2cc(N3CCNCC3)c(F)cc2c1=O [CIPROFLOXACIN]	s	11.5
C[C@H](CS)C(=O)N1CCC[C@H]1C(=O)O [CAPTOPRIL]	s	12.3

Request: Entry under review: O=C(O)c1cc(/N=N/c2ccc(S(=O)(=O)Nc3ccccn3)cc2)ccc1O [SULFASALAZINE] . Reported PT?
Response: 12.7

---

Field: KIDNEY_TOTAL. Provide a value for each of the compounds that follow.
species on record: Rattus norvegicus; assay: Open TG-GATES - Regimen: Single; type: toxicity, organism-based, Sprague-Dawley; set-up: regimen Single, gender Male, age 6 weeks; details: in vivo, po, 0 mg/kg, 24 h, tissue Kidney, route gavage, dose level Control
Answer with the figure and its unit, nothing else.

Example entries begin here.
Compound	Meas value
O=C(O)c1cn(C2CC2)c2cc(N3CCNCC3)c(F)cc2c1=O	1.8 g
CN(C)CCC=C1c2ccccc2CCc2ccccc21	1.8 g
Cn1c(=O)c2[nH]cnc2n(C)c1=O.O	2 g

Kindly give each listed record's KIDNEY_TOTAL.
1. NC(=O)N/N=C/c1ccc([N+](=O)[O-])o1
2. CC(=O)Oc1ccccc1C(=O)O
3. COc1cc2c(c3oc(=O)c4c(c13)CCC4=O)[C@@H]1C=CO[C@@H]1O2
4. CSc1ccc2c(c1)N(CCC1CCCCN1C)c1ccccc1S2 (centres undefined)
5. Clc1ccccc1CN1CCc2sccc2C1
6. NC(=O)N1c2ccccc2C=Cc2ccccc21 [CARBAMAZEPINE]

Response:
["1.7 g", "2 g", "2.1 g", "2 g", "1.9 g", "2 g"]

---

Answer each item with its documented LDH.
species: Rattus norvegicus; experiment: Open TG-GATES - Regimen: Daily Repeat; assay type: toxicity, organism-based, Sprague-Dawley; parameters: regimen Daily Repeat, gender Male, age 6 weeks; details: in vivo, po, 0 mg/kg, 72 h, tissue Plasma, route gavage, dose level Control, time 3 day
Give bare numbers, in IU/L.

Here's what some known entries look like.
Compound	Readout kind	Unit spec	Meas value
O=C(O)c1cn(C2CC2)c2cc(N3CCNCC3)c(F)cc2c1=O [CIPROFLOXACIN]	LDH	IU/L	88.4
CCc1cc(C(N)=S)ccn1 [ETHIONAMIDE]	LDH	IU/L	80.2
Clc1ccccc1CN1CCc2sccc2C1 [TICLOPIDINE]	LDH	IU/L	128.8
CSc1ccc2c(c1)N(CCC1CCCCN1C)c1ccccc1S2 (stereo not given) [THIORIDAZINE]	LDH	IU/L	95

Count: 2. Required value per item: LDH.
1. NC(=O)N/N=C/c1ccc([N+](=O)[O-])o1 [NITROFURAZONE]
2. Cn1c(=O)c2[nH]cnc2n(C)c1=O.O [THEOPHYLLINE]

Response:
[79, 183.6]

Record LDH per entry; entries follow.
1. NC(=O)N1c2ccccc2C=Cc2ccccc21 [CARBAMAZEPINE]
2. CC(=O)Oc1ccccc1C(=O)O [ASPIRIN]
3. COc1ccc(Cc2nccc3cc(OC)c(OC)cc23)cc1OC [PAPAVERINE]
4. C[C@H](CS)C(=O)N1CCC[C@H]1C(=O)O [CAPTOPRIL]

Response:
178.8
223
171.6
86.2

# return LDH for each item in the list
1. O=C(O)c1cc(/N=N/c2ccc(S(=O)(=O)Nc3ccccn3)cc2)ccc1O [SULFASALAZINE]
2. CCCC(CCC)C(=O)O [VALPROIC ACID]
3. CO[C@H]1/C=C/O[C@@]2(C)Oc3c(C)c(O)c4c(O)c(c(/C=N/N5CCN(C)CC5)c(O)c4c3C2=O)NC(=O)/C(C)=C\C=C\[C@H](C)[C@H](O)[C@@H](C)[C@@H](O)[C@@H](C)[C@H](OC(C)=O)[C@@H]1C [RIFAMPIN]
4. CN(C)CCC=C1c2ccccc2CCc2ccccc21 [AMITRIPTYLINE]
5. COc1ccc2c(c1)c(CC(=O)O)c(C)n2C(=O)c1ccc(Cl)cc1 [INDOMETHACIN]

Response:
226.6
206.6
110.6
81
95.2
